Reference source: patent US20030236190A1

- assayed-target: T1, Soluble IGF-1R (R&D Systems, Cat. # 391-GR/CF); recombinant human IGF-1R (human, UniProt P08069 31-935)
- T1 construct: extracellular domain; Eu3+-labelled in the TR-FRET assays; also called sIGF-1R; rhIGF-1R
- test-details: phage ELISA vs milk
Positions of bridges follow the written chain, without caps; N, C: chain ends. No end group written: not given here.
value-kind: Ratio over Background

Q: Note Ratio over Background for the binder shown: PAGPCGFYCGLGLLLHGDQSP (disulfide 5-9 (inferred)) [20E2B-4-H8-IGFR]
A: 5.3 fold

Q: Query Ratio over Background for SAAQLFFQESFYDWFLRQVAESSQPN [H2CA-4-F11-IGFR]
A: 6.8 fold

Q: Recall and state the measured Ratio over Background for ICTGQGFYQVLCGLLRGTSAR (disulfide 2-12 (inferred)) [20E2B-2-B3-IGFR] .
A: 5.3 fold

Q: Consider the binder LKDGFYDYFWQRLHLGS [NNRPγ-4-B11-IR] and give its recorded Ratio over Background.
A: 18.7 fold

Q: Item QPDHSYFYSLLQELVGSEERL [20E2B-4-F9-IGFR] : provide Ratio over Background
A: 14.7 fold

Q: Quickly give me recorded Ratio over Background for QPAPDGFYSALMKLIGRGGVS [20E2B-3-C8-IGFR]
A: 15.6 fold

Q: Output Ratio over Background of RFDPFYSYFVNLLGASA [NNRPγ-4-A7-IR]
A: 6.3 fold
